species on record: Rattus norvegicus; assay: Open TG-GATES - Regimen: Single; assay type: toxicity, organism-based, Sprague-Dawley; set-up: regimen Single, gender Male, age 6 weeks; conditions: in vivo, po, 0 mg/kg, 24 h, route gavage, dose level Control
# TERMINAL_BW annotations
Kindly report the value followed by its unit.

Known TERMINAL_BW results, listed for orientation:
What value of TERMINAL_BW has been reported for the following compound? CN(C)[C@@H]1C(O)=C(C(N)=O)C(=O)[C@@]2(O)C(O)=C3C(=O)c4c(O)cccc4[C@@](C)(O)[C@H]3C[C@@H]12 [TETRACYCLINE] 200.1 g

What value of TERMINAL_BW has been reported for the following compound? `CCOC(=O)[C@H](CCc1ccccc1)N[C@@H](C)C(=O)N1CCC[C@H]1C(=O)O` 230.9 g

What value of TERMINAL_BW has been reported for the following compound? C#C[C@]1(O)CC[C@H]2[C@@H]3CCC4=Cc5oncc5C[C@]4(C)[C@H]3CC[C@@]21C [DANAZOL] 231.9 g

Now look at this entry.
What value of TERMINAL_BW has been reported for the following compound? CN1C(C(=O)Nc2ccccn2)=C(O)c2sc(Cl)cc2S1(=O)=O [LORNOXICAM] 238.4 g

###

species: Rattus norvegicus; assay: Open TG-GATES - Regimen: Single; format: toxicity, organism-based, Sprague-Dawley; design: regimen Single, gender Male, age 6 weeks; conditions: in vivo, po, 0 mg/kg, 6 h, tissue Blood, route gavage, dose level Control
EXPERIMENTAL_ENDPOINT: MCH
Kindly report the value followed by its unit.

What value of MCH has been reported for the following compound? COc1cc([C@@H]2c3cc4c(cc3[C@@H](O[C@@H]3O[C@@H]5CO[C@@H](C)O[C@H]5[C@H](O)[C@H]3O)[C@H]3COC(=O)[C@H]23)OCO4)cc(OC)c1O [ETOPOSIDE] 22 pg

What value of MCH has been reported for the following compound? `CN1C(C(=O)Nc2ccccn2)=C(O)c2sc(Cl)cc2S1(=O)=O` 20.9 pg

Now look at this entry.
What value of MCH has been reported for the following compound? CC(CN1c2ccccc2Sc2ccccc21)N(C)C (stereo not drawn) 20.9 pg

###

species: Rattus norvegicus; test: Open TG-GATES - Regimen: Single; type: toxicity, organism-based, Sprague-Dawley; set-up: regimen Single, gender Male, age 6 weeks; conditions: in vivo, po, 0 mg/kg, 9 h, tissue Plasma, route gavage, dose level Control
EXPERIMENTAL_ENDPOINT: TC (mg/dL)
Field format: number, assumed mg/dL, no unit text.

What value of TC has been reported for the following molecule? `CN(C)[C@@H]1C(O)=C(C(N)=O)C(=O)[C@@]2(O)C(O)=C3C(=O)c4c(O)cccc4[C@@](C)(O)[C@H]3C[C@@H]12` 71.2

***
What value of TC has been reported for the following molecule? `CN1C(C(=O)Nc2ccccn2)=C(O)c2sc(Cl)cc2S1(=O)=O` 75.2

What value of TC has been reported for the following molecule? CC(=O)Nc1nnc(S(N)(=O)=O)s1 [ACETAZOLAMIDE] 70.2

What value of TC has been reported for the following molecule? `C#C[C@]1(O)CC[C@H]2[C@@H]3CCC4=Cc5oncc5C[C@]4(C)[C@H]3CC[C@@]21C` 69.8

What value of TC has been reported for the following molecule? `CCOC(=O)[C@H](CCc1ccccc1)N[C@@H](C)C(=O)N1CCC[C@H]1C(=O)O` 69.6

What value of TC has been reported for the following molecule? `Clc1c(Cl)c(Cl)c(Cl)c(Cl)c1Cl` 67.6
